So I've got a bunch of compounds here, and I need their melting point values.

Req: Which measured melting point value corresponds to `COC(=O)c1csc(NC(=O)[C@H]2O[C@@H]2C(=O)N(Cc2ccc(F)cc2)c2ccc(C(=O)Nc3nc4ccccc4s3)cc2)n1` ?
Resp: 196.3 to 197.1 °C

Req: Again, but for `Cc1c(Cl)cccc1NC(=O)[C@H]1O[C@@H]1C(=O)N(Cc1ccc(F)cc1)c1ccc(C(=O)Nc2nc3ccccc3s2)cc1`
Resp: 210.3 to 211.1 °C

Req: Again, but for `COc1ccccc1NC(=O)[C@H]1O[C@@H]1C(=O)N(Cc1ccc(F)cc1)c1ccc(C(=O)Nc2nc3ccccc3s2)cc1`
Resp: 189.2 to 190 °C
